All figures here come from patent US20240360151A1.

Molecular target: NLRP3 inflammasome (Homo sapiens)
Construct: endogenous in cells
Sequence (Q96P20 whole entry): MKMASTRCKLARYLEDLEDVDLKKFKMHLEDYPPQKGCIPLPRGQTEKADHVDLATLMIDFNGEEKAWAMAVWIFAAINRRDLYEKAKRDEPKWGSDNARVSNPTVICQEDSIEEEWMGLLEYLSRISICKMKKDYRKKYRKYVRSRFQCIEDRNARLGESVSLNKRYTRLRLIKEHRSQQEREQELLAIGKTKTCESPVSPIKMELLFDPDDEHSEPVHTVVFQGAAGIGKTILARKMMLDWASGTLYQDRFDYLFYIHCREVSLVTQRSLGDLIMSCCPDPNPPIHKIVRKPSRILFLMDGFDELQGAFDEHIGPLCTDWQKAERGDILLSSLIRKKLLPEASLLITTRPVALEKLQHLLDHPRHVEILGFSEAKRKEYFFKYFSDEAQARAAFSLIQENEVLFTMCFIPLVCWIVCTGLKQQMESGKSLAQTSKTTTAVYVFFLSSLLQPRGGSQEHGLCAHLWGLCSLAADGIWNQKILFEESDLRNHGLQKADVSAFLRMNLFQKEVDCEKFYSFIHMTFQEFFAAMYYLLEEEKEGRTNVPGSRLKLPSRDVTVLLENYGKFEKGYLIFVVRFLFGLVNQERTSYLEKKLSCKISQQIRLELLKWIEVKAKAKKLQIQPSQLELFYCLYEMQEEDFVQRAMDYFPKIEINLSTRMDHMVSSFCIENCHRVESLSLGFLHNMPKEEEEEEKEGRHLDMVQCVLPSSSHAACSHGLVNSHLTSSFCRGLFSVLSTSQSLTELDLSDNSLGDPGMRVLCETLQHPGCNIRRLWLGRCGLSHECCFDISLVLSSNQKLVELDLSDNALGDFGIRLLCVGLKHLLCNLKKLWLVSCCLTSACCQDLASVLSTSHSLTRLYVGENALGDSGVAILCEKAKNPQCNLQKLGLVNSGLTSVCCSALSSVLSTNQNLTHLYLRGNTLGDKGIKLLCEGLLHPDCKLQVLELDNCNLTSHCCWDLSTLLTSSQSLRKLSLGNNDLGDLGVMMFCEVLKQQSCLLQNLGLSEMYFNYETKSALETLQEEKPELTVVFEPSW
Experiment: IL-1β secretion assay (NLRP3 IC50) in LPS-primed, nigericin-activated THP-1 cells, HTRF
Conditions: monocytic THP-1 cells; LPS 10 ng/mL 3 h priming, then compound + nigericin 10 μM 2 h; relative IC50, 10 concentrations, geometric mean
Description: Monocytic THP-1 cells were maintained in RPMI 1640 media (Gibco 21875)+10% FBS, (Gibco 10500)+1% penicillin/streptomycin (Gibco 15140-122). […] 16 μL supernatant was removed, and IL-1β levels were monitored using an HTRF assay (Human IL1b Kits HTRF Cisbio ref: 62HILBPEH) according to manufacturers' instructions. […] Relative IC50 (IC50 rel) were obtained from a dose response curve with 10 concentrations. Final IC50 rels are expressed as the geometric mean. […]
pIC50: −log10 of the molar value.
assay_endpoint: pIC50

A. CCc1cc(C(F)(F)F)cc(O)c1-c1ccc(N2CC[C@H]3CCN(C)C[C@H]32)nn1 (single isomer, unassigned)
B. Cc1cc(C(F)(F)F)cc(O)c1-c1ccc(N2CC[C@H]3CN(C)C[C@H]32)nn1 (single isomer, unassigned) [Example 270]
C. Cc1cc(C(F)(F)F)cc(O)c1-c1nnc(N2C[C@@H](O)CC2=O)cc1C(F)F
D. Cc1cc(C)c(-c2ccc(N3C[C@@H](CO)O[C@@H](C)C3)nn2)c(O)c1
E. CCN1CC[C@H]2OCCN(c3cc(C)c(-c4ccc(C(F)(F)F)cc4O)nn3)[C@H]2C1
Query block: Arrange the 5 entries by pIC50 so the values rise. Respond with an ordered listing of the labels, as requested.
Result block: B, A, C, D, E
